test: Half life human liver microsomes in the presence of NADPH; type: ADME, Microsome
Form field: half-life (one value per entry).
Response body: numeric value in min, unit text excluded.

Cc1cc(NCc2cc(Nc3ccnc4cc(Cl)ccc34)ccc2F)nc(N2CCN(C)CC2)n1 : 16.7

## Task Param item = `CCN(CC)Cc1cc(Nc2ccnc3cc(Cl)ccc23)ccc1O` ; retrieve measured half-life.
## Result 5.4

###

assay: in vitro; conditions: hamster, CHO cells versus Plasmodium falciparum Dd2
Description: Selectivity index, ratio of IC50 for CHO cells to IC50 for antiplasmodial activity against chloroquine-resistant Plasmodium falciparum Dd2
quantityName: selectivity ratio
Output: the number by itself.

## Task Param item = `Cc1cc(NCc2cc(Nc3ccnc4cc(Cl)ccc34)ccc2F)nc(N2CCN(c3ccccc3)CC2)n1` ; retrieve measured selectivity ratio.
## Result 555

## Task Please give the result for `CCN1CCN(c2cc(C)nc(NCc3cc(Nc4ccnc5cc(Cl)ccc45)ccc3F)n2)CC1` too.
## Result 3430

## Task Please give the result for `Cc1cc(N2CCCCC2)nc(NCc2cc(Nc3ccnc4cc(Cl)ccc34)ccc2F)n1` too.
## Result 680

## Task Please give the result for `NCc1cc(Nc2ccnc3cc(Cl)ccc23)ccc1F` too.
## Result 533

## Task Please give the result for `Cc1cc(N2CCN(C)CC2)nc(NCc2cc(Nc3ccnc4cc(Cl)ccc34)ccc2F)n1` too.
## Result 3160

###

Form field: IC50 (one value per entry).
test system: CHO; assay: Cytotoxicity in CHO cells assessed as reduction in cell viability; assay type: cell-based; details: Cricetulus griseus
Response body: numeric value in µM, unit text excluded.

For orientation, consider the following solved cases.
NCc1cc(Nc2ccnc3cc(Cl)ccc23)ccc1F : 31.3
Cc1cc(N2CCCCC2)nc(NCc2cc(Nc3ccnc4cc(Cl)ccc34)ccc2F)n1 : 3.18
Cc1cc(NCc2cc(Nc3ccnc4cc(Cl)ccc34)ccc2F)nc(N2CCOCC2)n1 : 14.6

## Task Param item = `Cc1cc(N2CCOCC2)nc(NCc2cc(Nc3ccnc4cc(Cl)ccc34)ccc2F)n1` ; retrieve measured IC50.
## Result 4.59

###

Form field: selectivity ratio (one value per entry).
assay: in vitro; conditions: hamster, CHO cells versus Plasmodium falciparum Dd2
Output: the number by itself.

For orientation, consider the following solved cases.
Cc1cc(N2CCSCC2)nc(NCc2cc(Nc3ccnc4cc(Cl)ccc34)ccc2F)n1 : 169
Cc1cc(NCc2cc(Nc3ccnc4cc(Cl)ccc34)ccc2F)nc(N2CCSCC2)n1 : 459
Cc1cc(NCc2cc(Nc3ccnc4cc(Cl)ccc34)ccc2F)nc(N2CCCC2)n1 : 462

## Task Param item = `Cc1cc(N2CCOCC2)nc(NCc2cc(Nc3ccnc4cc(Cl)ccc34)ccc2F)n1` ; retrieve measured selectivity ratio.
## Result 256

## Task Please give the result for `Cc1cc(NCc2cc(Nc3ccnc4cc(Cl)ccc34)ccc2F)nc(N2CCOCC2)n1` too.
## Result 437

## Task Please give the result for `Cc1cc(N2CCN(c3ccccc3)CC2)nc(NCc2cc(Nc3ccnc4cc(Cl)ccc34)ccc2F)n1` too.
## Result 282

###

Form field: log10(IC50) (one value per entry).
tested on: CHO; test: Cytotoxicity in CHO cells assessed as reduction in cell viability; assay type: cell-based; conditions: Cricetulus griseus
Note: values are log10 of IC50 expressed in µM.

For orientation, consider the following solved cases.
Cc1cc(NCc2cc(Nc3ccnc4cc(Cl)ccc34)ccc2F)nc(N2CCSCC2)n1 : 1.18
Cc1cc(N2CCN(c3ccccc3)CC2)nc(NCc2cc(Nc3ccnc4cc(Cl)ccc34)ccc2F)n1 : 1.24
Cc1cc(NCc2cc(Nc3ccnc4cc(Cl)ccc34)ccc2F)nc(N2CCN(c3ccccc3)CC2)n1 : 1.24
CCN1CCN(c2cc(C)nc(NCc3cc(Nc4ccnc5cc(Cl)ccc45)ccc3F)n2)CC1 : 1.90
Cc1cc(N2CCSCC2)nc(NCc2cc(Nc3ccnc4cc(Cl)ccc34)ccc2F)n1 : 0.43

## Task Param item = `Cc1cc(NCc2cc(Nc3ccnc4cc(Cl)ccc34)ccc2F)nc(N2CCCC2)n1` ; retrieve measured log10(IC50).
## Result 0.58

## Task Please give the result for `Cc1cc(N2CCN(C)CC2)nc(NCc2cc(Nc3ccnc4cc(Cl)ccc34)ccc2F)n1` too.
## Result 1.76
